- protocol: clinical
- Parameters: species or system postmenopausal women
- condition description: human, in vivo, topical or ocular
endpoint label: concentration at 36 h (ng/mL)
Report only the number, with the unit ng/mL understood.

Dear colleague, please send me the reported concentration at 36 h for C[C@]12CC[C@@H]3c4ccc(O)cc4CC[C@H]3[C@@H]1CC[C@@H]2O [Estradiol, 17-β-estradiol] when you can.
0.0303

---

- protocol: clinical
- Parameters: species or system postmenopausal women
- condition description: human, in vivo, topical or ocular
endpoint label: concentration at 60 h (ng/mL)
Report only the number, with the unit ng/mL understood.

Dear colleague, please send me the reported concentration at 60 h for C[C@]12CC[C@@H]3c4ccc(O)cc4CC[C@H]3[C@@H]1CC[C@@H]2O when you can.
0.0487

---

- protocol: clinical
- Design: species or system postmenopausal women
- condition description: human, in vivo, topical or ocular
endpoint label: concentration at 30 h (ng/mL)
Report only the number, with the unit ng/mL understood.

Dear colleague, please send me the reported concentration at 30 h for C[C@]12CC[C@@H]3c4ccc(O)cc4CC[C@H]3[C@@H]1CC[C@@H]2O [Estradiol, 17-β-estradiol] when you can.
0.0393

---

- protocol: clinical
- Set-up: species or system postmenopausal women
- condition description: human, in vivo, topical or ocular
endpoint label: concentration at 72 h (ng/mL)
Report only the number, with the unit ng/mL understood.

Dear colleague, please send me the reported concentration at 72 h for C[C@]12CC[C@@H]3c4ccc(O)cc4CC[C@H]3[C@@H]1CC[C@@H]2O [Estradiol, 17-β-estradiol] when you can.
0.0437

---

- protocol: clinical
- Design: species or system postmenopausal women
- condition description: human, in vivo, topical or ocular
endpoint label: concentration at 2 h (ng/mL)
Report only the number, with the unit ng/mL understood.

Dear colleague, please send me the reported concentration at 2 h for C[C@]12CC[C@@H]3c4ccc(O)cc4CC[C@H]3[C@@H]1CC[C@@H]2O when you can.
0.0328

---

- protocol: clinical
- Set-up: species or system postmenopausal women
- condition description: human, in vivo, topical or ocular
endpoint label: concentration at 12 h (ng/mL)
Report only the number, with the unit ng/mL understood.

Dear colleague, please send me the reported concentration at 12 h for C[C@]12CC[C@@H]3c4ccc(O)cc4CC[C@H]3[C@@H]1CC[C@@H]2O when you can.
0.0268

---

- protocol: clinical
- Design: species or system postmenopausal women
- condition description: human, in vivo, topical or ocular
endpoint label: concentration at 24 h (ng/mL)
Report only the number, with the unit ng/mL understood.

Dear colleague, please send me the reported concentration at 24 h for C[C@]12CC[C@@H]3c4ccc(O)cc4CC[C@H]3[C@@H]1CC[C@@H]2O [Estradiol, 17-β-estradiol] when you can.
0.0276

---

- protocol: clinical
- Design: species or system postmenopausal women
- condition description: human, in vivo, topical or ocular
endpoint label: concentration at 6 h (ng/mL)
Report only the number, with the unit ng/mL understood.

Dear colleague, please send me the reported concentration at 6 h for C[C@]12CC[C@@H]3c4ccc(O)cc4CC[C@H]3[C@@H]1CC[C@@H]2O when you can.
0.0205
